Each entry below lists one item and its recorded TGI value.
# Test system: U251 CNS
# assay-summary: NCI tumour cell line growth inhibition, 48 h

Here's what some known entries look like.
molecule="Cc1ccc(C2CC(c3cccc([N+](=O)[O-])c3)=Nc3ccccc3S2)cc1 (stereo unspecified)" result="> 79.5 µM"
molecule="CSC1N=CNc2c1sc(=S)n2-c1ccccc1 (stereo unspecified)" result="> 100 µM"
molecule="CC1OC(Oc2c(-c3cc(O)c(O)c(O)c3)oc3cc(O)cc(O)c3c2=O)C(O)C(O)C1O (stereo unspecified)" result="> 100 µM"
molecule="COC1=CC(=O)c2c(cc(COP(N)(=O)N(CCBr)CCBr)n2C)C1=O (stereo unspecified)" result="0.859 µM"

Let us move to another entry and its TGI.
Value of TGI reported for the molecule O=C(c1ccccc1)c1ccc2cccc(OC3OC(CO)C(O)C(O)C3O)c2n1 (stereo unspecified) is > 100 µM

###

# Test system: TK-10 renal
# assay-summary: NCI tumour cell line growth inhibition, 48 h
measured-parameter: TGI

compound=O=C(CN(/C=C/C(=O)C(F)(F)F)c1ccc(Cl)cc1)c1ccc(F)cc1 measured_parameter=TGI result="74 µM"
compound=CCOC(=O)/C(C#N)=C\C=C(\Sc1nc2ccccc2s1)c1ccc(Cl)cc1 measured_parameter=TGI result="37.3 µM"
compound=Nn1c(SCC(=O)O)nc2ccccc2c1=O measured_parameter=TGI result="> 100 µM"
compound=c1ccc(-c2nnc(CCCCCCCCc3nnc(-c4ccccc4)o3)o2)cc1 measured_parameter=TGI result="> 100 µM"
compound=CCCCNC(=O)c1cc(S(=O)(=O)n2cc[nH]c2=O)c(SC)cc1Cl measured_parameter=TGI result="> 100 µM"
compound=C/C(=C\COP(=O)(O)OP(=O)(O)O)CCCOCc1ccccc1 measured_parameter=TGI result="> 100 µM"
compound=C=[CH][Sn]([CH]=C)([S]c1cccc2cccnc12)[S]c1cccc2cccnc12 measured_parameter=TGI result="1.46 µM"
compound=O=C1Nc2c(Cl)cc(Cl)cc2C1=O measured_parameter=TGI result="> 100 µM"

Moving on to the next compound.
The compound CC1OC(O[C@H]2CC[C@]3(C)[C@H]4CC=C5[C@@H]6[C@@H](C)[C@H](C)CC[C@]6(C(=O)OC6OC(CO)C(O)C(O)C6O)CC[C@@]5(C(=O)O)[C@]4(C)CC[C@H]3C2(C)C)C(O)C(O)C1O (some centres undefined) showed TGI equal to > 100 µM

###

# Test system: UACC-62 melanoma
# assay-summary: NCI tumour cell line growth inhibition, 48 h
The entries below are paired with their reported TGI.

molecule="CCC(N)(C(=O)O)C(C)C (stereo not drawn)" measured_parameter=TGI result="> 100 µM"

// TGI lookup, molecule = CC/C=C/C(CC)C/C(C)=C\[C@]1(CC)C[C@H](CC)[C@H](CC(=O)O)OO1 (stereo partly drawn) , result: 3.07 µM

Looking up CC(=O)OCC1OC(Nc2ccc3nc(C)n(-c4ccccc4)c(=O)c3c2)C(OC(C)=O)C(OC(C)=O)C1OC(C)=O (stereo not drawn) , I see its TGI listed as > 50 µM

###

Reported TGI values are given for each entry in this list.
# Test system: MOLT-4 leukemia
# assay-summary: NCI tumour cell line growth inhibition, 48 h

Example molecules with recorded TGI:
molecule=Cc1ccc(C(=O)Nc2ccc(S(=O)(=O)O)c3cc(S(=O)(=O)O)cc(S(=O)(=O)O)c23)cc1N result="> 100 µM"
molecule="O=C1OC2C=CCC1C2 (stereo not drawn)" result="> 100 µM"
molecule=O=C(O)c1ccc(NCc2nc3cc(Cl)c(Cl)cc3[nH]2)cc1 result="> 100 µM"
molecule="COC(=O)C(=O)C(C(=O)C(=O)Nc1ccc(OC)cc1[N+](=O)[O-])c1nc2ccc([N+](=O)[O-])cc2[nH]c1=O (stereo not drawn)" result="> 100 µM"
molecule="COC(=O)/C=C\\[C@H]1[C@H](C)N1S(=O)(=O)c1ccc(C)cc1 (stereo partly drawn)" result="> 100 µM"
molecule="CCC1=C(C(C)=O)[C@@H]2CCCCC(C(=O)OC)[C@@H]2C1=O (stereo partly drawn)" result="> 100 µM"
molecule=COc1ccc(-c2ccc(-c3ccc(C(=N)N)c(F)c3)s2)cc1 result="1.87 µM"
molecule=COc1cc(-c2nn(-c3cccc(NC(=O)Nc4cccc(C(F)(F)F)c4)c3)cc2-c2ccncc2)ccc1Cl result="3.48 µM"
molecule="Cc1ccccc1NC(=O)/C(=N/NC(=O)CC#N)C1C(=O)N(c2ccccc2)N=C1N (stereo not drawn)" result="> 100 µM"
molecule=Cn1ccc2c1SSSSS2 result="> 100 µM"

// field: TGI; key: CCOC(=O)[C@@H]1[C@@H]2NC(=O)N[C@@]1(C)Oc1ccccc12 ; value = > 100 µM

Record C[N+](C)(CCNc1ccc(NCC[N+](C)(C)Cc2ccc([N+](=O)[O-])cc2)c2c1C(=O)c1ccccc1C2=O)Cc1ccc([N+](=O)[O-])cc1 . Reported TGI: > 100 µM

Reported TGI for O=C1C(C=NC(=S)c2ccccc2)=C(O)c2ccccc21 was 69.3 µM

###

# Test system: BT-549 breast
# assay-summary: NCI tumour cell line growth inhibition, 48 h; in the data active means GI50 below about 0.43 µM; inactive means the rest
Give your call using only these classes: active, inactive

Here are 8 compounds together with their reported answers.
compound="Cc1ccc(C2=Nc3c(N)nc(N)nc3NC(c3cccc(Nc4ccnc5cc(C(F)(F)F)ccc45)c3)C2)cc1 (stereo not drawn)" classification=inactive
compound="COc1ccc(/C=C/C2C(C#N)=C(N)OC3=C2C(=O)CCC3)cc1 (stereo not drawn)" classification=inactive
compound=O=C(CN(/C=C/C(=O)C(F)(F)F)c1ccc(Cl)cc1)c1ccc(F)cc1 classification=inactive
compound=Cn1c(-c2ccncc2)c(-c2ccc(F)cc2)c2ncccc21 classification=inactive
compound=Cc1cc2cn3c4ccc(O)cc4nc(N)c3c2cc1C classification=inactive
compound="Nc1c(C(=O)Nc2cccc(C(F)(F)F)c2)sc2nc3c(cc12)C(O)CCC3 (stereo not drawn)" classification=inactive
compound=O=C1/C=C/[C@@H](O)[C@@H]2C[C@@H](O)C[C@H]2/C=C/CCC[C@H](CCc2ccccc2)O1 classification=active
compound="COc1ccc(C2C=C(c3ccc(OC)c(OC)c3)N=C3SC=CN32)c(Br)c1 (stereo not drawn)" classification=inactive

Called result for Cc1ccc(C2=NN(c3ccc(S(C)(=O)=O)cc3)C(=O)CC2)cc1
inactive

Hi team, can someone confirm the assay call for C#CC[C@@H]1C[C@]2(C)[C@H]3CC[C@@H]4[C@H]5C(C(=C)C)CC[C@]5(C(=O)NCCCCN)CC[C@@]4(C)[C@]3(C)CC[C@H]2C(C)(C)[C@H]1OC(C)=O (stereo partly drawn) ?
inactive

Please state the recorded outcome for this compound: COc1ccc(C(=O)c2sc3nc4c(cc3c2N)CCCC4)cc1OC
inactive

Please state the recorded outcome for this compound: Cc1cc(=O)n2nnc3c4ccccc4ccc3n12
inactive

Which outcome was entered for the compound COc1cc(-c2nn(-c3cccc(NC(=O)Nc4cccc(C(F)(F)F)c4)c3)cc2-c2ccncc2)ccc1Cl in this test?
inactive

// return assay outcome for O=C(OCC1OC(n2cc(C(F)(F)F)c(=O)[nH]c2=O)CC1OC(=O)c1ccc([N+](=O)[O-])cc1)c1ccc([N+](=O)[O-])cc1 (stereo not drawn)
inactive

// param item: Cc1nn2c(/C=N/N=C(N)N)c(-c3ccc(Cl)c([N+](=O)[O-])c3)nc2s1 ; yields the recorded call
inactive

Please let me know the test result on file for Cc1ccc(CN(C)c2ccc(CO)c(Cl)c2)cc1 .
inactive

Which outcome was entered for the compound CC(=O)c1c(Nc2cccc(F)c2)[nH]c2c(Cl)cc(Cl)c(Cl)c2c1=O in this test?
inactive

Tell me the assay call for Cn1ccc2c1SSSSS2 please.
inactive

###

# Test system: HS 578T breast
# assay-summary: NCI tumour cell line growth inhibition, 48 h
Here, each record is paired with measured TGI data.

Example cases with answers are listed next.
compound=COc1ccc(C(=O)/C=C/c2ccc(Oc3cc(C(=O)/C=C/c4ccc(O)cc4)c(O)cc3OC)cc2)c(O)c1 measured_parameter=TGI result="> 100 µM"
compound=CCn1c(=O)c2cn[nH]c2n(C)c1=O measured_parameter=TGI result="> 100 µM"
compound=COc1cc(S(=O)(=O)Nc2nc(-c3ccc(N4C(=O)/C(=C\c5cccs5)N=C4c4ccccc4)cc3)cs2)ccc1Cl measured_parameter=TGI result="63.9 µM"
compound=OC(CC(CC(O)(C(F)(F)F)C(F)(F)F)=NN=C(CC(O)(C(F)(F)F)C(F)(F)F)CC(O)(C(F)(F)F)C(F)(F)F)(C(F)(F)F)C(F)(F)F measured_parameter=TGI result="> 10 µM"
compound="CC(C)(C)OC(=O)NC(CSCc1ccc(C(=O)c2ccccc2)cc1)C(=O)O (stereo not drawn)" measured_parameter=TGI result="> 100 µM"
compound=Cc1ccc(C(=O)Nc2ccc(S(=O)(=O)O)c3cc(S(=O)(=O)O)cc(S(=O)(=O)O)c23)cc1N measured_parameter=TGI result="> 100 µM"
compound="O=C1OC2C=CCC1C2 (stereo not drawn)" measured_parameter=TGI result="> 100 µM"
compound="N#CC1CCCC2SC(F)(F)C(F)(F)C12 (stereo not drawn)" measured_parameter=TGI result="> 100 µM"

TGI in this record for C/C(=C\COP(=O)(O)OP(=O)(O)O)CCCOCc1ccccc1 : > 100 µM
